B1: glmS ribozyme (parent)
chain: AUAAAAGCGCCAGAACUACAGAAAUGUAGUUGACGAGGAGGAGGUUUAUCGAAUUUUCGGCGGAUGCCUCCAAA

# Variants of: B1
# assayText: self-cleavage kobs at 10000 uM GlcN6P; higher = faster cleavage; RNA array
# recordedConditions: with glucosamine-6-phosphate
Variants at the floor of the assay were thinned out.
attributeMeasured: self-cleavage kobs at 10000 uM GlcN6P

AUAAAAGCGCCGGAACUACAGAAAUGUAGUUGACGAGGAGGAGGUUUAUAGAAUUUUCGGCGGAUGCCUCCAAA [A12G C50A]; < 1e-05 s⁻¹
AUAAAAGCGCCAGAACUACAGAAAUGUAGUUGACGAUGAGGAGGUUUAUCGAAUUUUAGGCGGAUGCCUCCAAA [G37U C58A]; < 1e-05 s⁻¹

Please report the recorded self-cleavage kobs at 10000 uM GlcN6P for AUAAAAGCGCCAGAACUACAGAAAUGUAGUUGACGAGGAGGAGGUUUAUCGAAUUUUCCGCGGAUCCCUCCAAA [G59C G66C] . < 1e-05 s⁻¹

Please give the result for AUAAAAGAGCCAGAACUACAGAAAUGUAGAUGACGAGGAGGAGGUUUGUCGAAUUUUCGGCGGAUGCCUCCAAA [C8A U30A A48G] too. < 1e-05 s⁻¹

Repeat with AUAAACUCGCCUGAUCUACAGAAAUGUAGUUGACGAGGAGGAGGUUUAUCGAAUUUUCGGCGGAUGCCUCCAAA [A6C G7U A12U A15U] < 1e-05 s⁻¹

The reported measurements were obtained from the supplement of paper PMC7125110.
